# assay setup: in isopropanol, 283.15 K
outcome measure: solubility (mole fraction)
Answer with a bare number; do not write a unit.

Data request: Give me measured solubility (mole fraction), please, for this compound: CC(=O)N(CC(O)CO)c1c(I)c(C(=O)NCC(O)CO)c(I)c(C(=O)NCC(O)CO)c1I (stereo unspecified)
Data returned: 0.000389

====

# assay setup: in n-butanol, 323.15 K
outcome measure: solubility (mole fraction)
Enter a number only.

Data request: Entry CC(=O)N(CC(O)CO)c1c(I)c(C(=O)NCC(O)CO)c(I)c(C(=O)NCC(O)CO)c1I (stereo unspecified) needs its solubility (mole fraction) filled in; supply it.
Data returned: 0.00103

====

# assay setup: in n-propanol, 283.15 K
outcome measure: solubility (mole fraction)

Data request: For the molecule CC(=O)N(CC(O)CO)c1c(I)c(C(=O)NCC(O)CO)c(I)c(C(=O)NCC(O)CO)c1I (stereo unspecified) , give its measured solubility (mole fraction) value.
Data returned: 0.000715

====

# assay setup: in ethanol, 288.15 K
outcome measure: solubility (mole fraction)

Data request: Quick one: give measured solubility (mole fraction) for CC(=O)N(CC(O)CO)c1c(I)c(C(=O)NCC(O)CO)c(I)c(C(=O)NCC(O)CO)c1I (stereo unspecified)
Data returned: 0.0013

====

# assay setup: in DMSO, 293.15 K
outcome measure: solubility (mole fraction)
Response field accepts a number only; no unit should be typed.

Data request: Please supply the value of reported solubility (mole fraction) for the item CC(=O)N(CC(O)CO)c1c(I)c(C(=O)NCC(O)CO)c(I)c(C(=O)NCC(O)CO)c1I (stereo unspecified)
Data returned: 0.000293

====

# assay setup: in n-butanol, 313.15 K
outcome measure: solubility (mole fraction)
Just the number.

Data request: Give the measured solubility (mole fraction) for CC(=O)N(CC(O)CO)c1c(I)c(C(=O)NCC(O)CO)c(I)c(C(=O)NCC(O)CO)c1I (stereo unspecified)
Data returned: 0.000723

====

# assay setup: in DMSO, 318.15 K
outcome measure: solubility (mole fraction)
# answer = number (no unit)

Data request: Retrieve solubility (mole fraction) measured for CC(=O)N(CC(O)CO)c1c(I)c(C(=O)NCC(O)CO)c(I)c(C(=O)NCC(O)CO)c1I (stereo unspecified) and print it.
Data returned: 0.000737

====

# assay setup: in 1,4-dioxane, 323.15 K
outcome measure: solubility (mole fraction)
Just the number, please, no unit attached.

Data request: In one line, give reported solubility (mole fraction) of the entry CC(=O)N(CC(O)CO)c1c(I)c(C(=O)NCC(O)CO)c(I)c(C(=O)NCC(O)CO)c1I (stereo unspecified) .
Data returned: 0.000208

====

# assay setup: in ethyl acetate, 323.15 K
outcome measure: solubility (mole fraction)

Data request: Annotate the compound CC(=O)N(CC(O)CO)c1c(I)c(C(=O)NCC(O)CO)c(I)c(C(=O)NCC(O)CO)c1I (stereo unspecified) with its measured solubility (mole fraction).
Data returned: 0.000481

====

# assay setup: in n-propanol, 303.15 K
outcome measure: solubility (mole fraction)
// print number alone

Data request: Supply recorded solubility (mole fraction) for CC(=O)N(CC(O)CO)c1c(I)c(C(=O)NCC(O)CO)c(I)c(C(=O)NCC(O)CO)c1I (stereo unspecified) here.
Data returned: 0.00119

====

# assay setup: in acetone, 303.15 K
outcome measure: solubility (mole fraction)

Data request: Specify measured solubility (mole fraction) for CC(=O)N(CC(O)CO)c1c(I)c(C(=O)NCC(O)CO)c(I)c(C(=O)NCC(O)CO)c1I (stereo unspecified) .
Data returned: 0.000371
